Each recorded value in this set is attributed to the supplement of paper PMC9112550.

# Tested on: Escherichia coli TOP10
# experiment: shrunken log2 fold change of peptide-encoding DNA abundance (4.5 h post-induction vs induction); higher = less antimicrobial activity (less host growth inhibition)
# experimental-conditions: time post-induction: 4.5 h; library: site-saturation at positions 5, 18, 19, 20
Tag: yes (1) if measured shrunken log2 fold change is not below 0.09, no (0) if it is.

RRIRSRPPRLPRPRPRPFFLPRP = no (0)

Has RRIRDRPPRLPRPRPRPGVTPRP a recorded shrunken log2 fold change greater than or equal to 0.09?
yes (1)

shrunken log2 fold change >= 0.09 for RRIRLRPPRLPRPRPRPCDPPRP ?
no (0)

Reported shrunken log2 fold change at or above 0.09? RRIRERPPRLPRPRPRPAKPPRP
no (0)

Could you please find out whether RRIRFRPPRLPRPRPRPLRFPRP has shrunken log2 fold change that meets 0.09 or exceeds it?
yes (1)

Decide: is the reported value of shrunken log2 fold change for RRIRIRPPRLPRPRPRPPRWPRP equal to or greater than 0.09?
yes (1)

Determine whether measured shrunken log2 fold change meets or exceeds 0.09 for RRIRARPPRLPRPRPRPFNAPRP
no (0)

Given the entry RRIRRRPPRLPRPRPRPPIQPRP , answer whether its shrunken log2 fold change meets or surpasses 0.09.
yes (1)

// inclusive: shrunken log2 fold change at least 0.09? input: RRIRYRPPRLPRPRPRPPYNPRP
no (0)

shrunken log2 fold change >= 0.09 for RRIRDRPPRLPRPRPRPHDWPRP ?
yes (1)

# check: shrunken log2 fold change of RRIRDRPPRLPRPRPRPDAWPRP is greater than or equal to 0.09
yes (1)

Quick check: does RRIRWRPPRLPRPRPRPNMNPRP have shrunken log2 fold change greater than or equal to 0.09?
no (0)

Answer whether shrunken log2 fold change of RRIRNRPPRLPRPRPRPGNPPRP is greater than or equal to 0.09.
no (0)

Reported shrunken log2 fold change at or above 0.09? RRIRLRPPRLPRPRPRPATPPRP
yes (1)

// inclusive: shrunken log2 fold change at least 0.09? input: RRIRIRPPRLPRPRPRPSHFPRP
no (0)

Does RRIRPRPPRLPRPRPRPPERPRP have a reported shrunken log2 fold change of at least 0.09?
yes (1)

Can RRIRCRPPRLPRPRPRPVRDPRP be said to have shrunken log2 fold change at or above 0.09?
yes (1)

Decide: is the reported value of shrunken log2 fold change for RRIRNRPPRLPRPRPRPSASPRP equal to or greater than 0.09?
no (0)

Can RRIRERPPRLPRPRPRPAHRPRP be said to have shrunken log2 fold change at or above 0.09?
no (0)

Please check the record RRIRTRPPRLPRPRPRPRCHPRP and state if its shrunken log2 fold change is at or above 0.09.
no (0)

Check if shrunken log2 fold change >= 0.09 (inclusive). Item: RRIRHRPPRLPRPRPRPKYRPRP
no (0)

* * *

# Tested on: Escherichia coli TOP10;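 note: peptides expressed intracellularly from a pBAD plasmid library in pooled LB shake-flask culture, induced with 0.3% L-arabinose, DNA abundance read by NGS, three biological replicates, DESeq2 with apeglm shrinkage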
# experiment: shrunken log2 fold change of peptide-encoding DNA abundance (4.5 h post-induction vs induction); higher = less antimicrobial activity (less host growth inhibition)
# experimental-conditions: time post-induction: 4.5 h; library: site-saturation at positions 5, 18, 19, 20
readout-label: shrunken log2 fold change
One number for each entry.

// solved cases for shrunken log2 fold change follow
RRIRYRPPRLPRPRPRPHFYPRP = -0.662
RRIRFRPPRLPRPRPRPHPWPRP = -0.212
RRIRDRPPRLPRPRPRPISWPRP = 0.0803
RRIRVRPPRLPRPRPRPITCPRP = -0.324
RRIRVRPPRLPRPRPRPMYYPRP = -0.706
RRIRVRPPRLPRPRPRPWLYPRP = -0.157
RRIRTRPPRLPRPRPRPTCIPRP = -0.503
RRIRDRPPRLPRPRPRPRCTPRP = -0.054

I have 2 sequences here; please give me shrunken log2 fold change for each one.
1. RRIRQRPPRLPRPRPRPSKIPRP
2. RRIRGRPPRLPRPRPRPCRSPRP

1: -0.143; 2: -0.0741

Quick batch: shrunken log2 fold change for everything below.
1. RRIRSRPPRLPRPRPRPKKCPRP
2. RRIRDRPPRLPRPRPRPVSGPRP
3. RRIRWRPPRLPRPRPRPECVPRP
4. RRIRSRPPRLPRPRPRPDCVPRP
5. RRIRCRPPRLPRPRPRPEAEPRP
6. RRIRGRPPRLPRPRPRPWTWPRP
7. RRIRPRPPRLPRPRPRPIKHPRP
8. RRIRCRPPRLPRPRPRPPIYPRP

[-0.0782, 0.088, 1.26, -0.0759, 0.656, 0.339, -0.31, -0.253]
